- System: Klebsiella pneumoniae
- MEASUREMENT_NOTES: Antimicrobial activity against Klebsiella pneumoniae isolate Kp11978 expressing beta-lactamase OXA-48, SHV-2a and TEM-1 by Etest method
- Assay type: functional
Measured MIC by item
State just the number; it will be interpreted in µg/mL.

Answered examples (2):
In [3]: df
Out[3]:
                                   molecule  reported_metric  result
0  C[C@@H](O)[C@H]1C(=O)N2C(C(=O)O)=C(SCCNC=N)C[C@H]12 [IMIPENEM ANHYDROUS]              MIC      64
1  CO[C@@]1(NC(=O)Cc2cccs2)C(=O)N2C(C(=O)O)=C(COC(N)=O)CS[C@@H]21 [CEFOXITIN]              MIC     128

Any idea what MIC came out for C[C@@H](O)[C@H]1C(=O)N2C(C(=O)O)=C(S[C@@H]3CN[C@H](C(=O)N(C)C)C3)[C@H](C)[C@H]12 [MEROPENEM] on Klebsiella pneumoniae?
64

// fetch Klebsiella pneumoniae MIC for CO/N=C(\C(=O)N[C@@H]1C(=O)N2C(C(=O)O)=C(COC(C)=O)CS[C@H]12)c1csc(N)n1 [CEFOTAXIME]
64

Lab note: need MIC with Klebsiella pneumoniae for entry `C[C@@H](O)[C@H]1C(=O)N2C(C(=O)O)=C(S[C@@H]3CN[C@H](C(=O)Nc4cccc(C(=O)O)c4)C3)[C@H](C)[C@H]12` , please look it up.
64

Param readout= MIC; system= Klebsiella pneumoniae; entry= CC(C)(O/N=C(\C(=O)N[C@@H]1C(=O)N2C(C(=O)[O-])=C(C[n+]3ccccc3)CS[C@H]12)c1csc(N)n1)C(=O)O [CEFTAZIDIME] ; returns value.
512
